# assayInfo: MTT cytotoxicity (CC50) in Calu3 cells
# Type: cell-based
# conditionSummary: human, four-parameter sigmoidal fit, unit inferred
valueKind: CC50 at 48 h

[[record]]
testsmiles = "O=S(=O)(c1ccccc1)n1c(-c2cncc(-c3cc4cc(OCc5ccccc5)ccc4n3S(=O)(=O)c3ccccc3)c2)cc2cc(OCc3ccccc3)ccc21"
valuekind = "CC50 at 48 h"
reading = "> 30 µM"


----------
# System: SARS-CoV-2 reference strain
# assayInfo: SARS-CoV-2 replication in A549-ACE2 cells (viral genome copies, RT-qPCR)
# Format: cell-based
# conditionSummary: Severe acute respiratory syndrome coronavirus 2, A549-ACE2; A 549-ACE2 cells; apparent IC50; unit inferred
valueKind: IC50

[[record]]
testsmiles = "O=S(=O)(c1ccccc1)n1c(-c2cncc(-c3cc4cc(OCc5ccccc5)ccc4n3S(=O)(=O)c3ccccc3)c2)cc2cc(OCc3ccccc3)ccc21"
targetsystem = "SARS-CoV-2 reference strain"
reading = "250 nM"

